procedure_summary: qHTS of pediatric cancer cell lines to identify multiple opportunities for drug repurposing: Primary screen for NB-EBc1 cells (AID 1347095); further: potency means the concentration at half of the fitted maximal effect
setup_conditions: NB-EBc1 neuroblastoma viability, CellTiter-Glo luminescence, 48 h; series mostly up to 46 µM
Procedure: Drug repurposing or repositioning has been offered as a strategy for drug development in oncology programs. This approach has special potential for childhood cancers and other rare or orphan diseases, where the expected return on new drug development has been a disincentive to pharmaceuticals. […] We employed a titration-based paradigm (quantitative high-throughput screening or qHTS), where all compounds were tested at multiple concentrations for their effect on cell viability. […]
Records with an inconclusive call do not appear. Calls of active or inactive are those of the source. The call rests on the fitted dose curve; in most records, active means well fitted cell-killing curve with a large enough effect; inconclusive means small, poorly fitted or top-dose-only effect; inactive means no such curve, though single readings can be large or run the other way.

>  <molecule>
OC[C@H]1O[C@@H](O[C@H]2[C@@H](O)[C@@](O)(CO)O[C@@H]2CO)[C@H](O)[C@@H](O)[C@@H]1O

>  <Potency>
inactive

$$$$
>  <molecule>
COc1ccc2c(c1)CC[C@H]1[C@@H]2CC[C@]2(C)[C@@H](NCCCCCCN3C(=O)C=CC3=O)CC[C@H]12

>  <Potency>
inactive

$$$$
>  <molecule>
CC(=O)O[C@]1(C(C)=O)CC[C@H]2[C@@H]3C=C(Cl)C4=CC(=O)[C@@H]5C[C@H]5[C@]4(C)[C@@H]3CC[C@@]21C

>  <Potency>
16.6 µM (active)

$$$$
>  <molecule>
N[C@@H](CC(=O)N1CCn2c(nnc2C(F)(F)F)C1)Cc1cc(F)c(F)cc1F

>  <Potency>
inactive

$$$$
>  <molecule>
Cc1ccc(S(=O)(=O)OCC(=O)Nc2ccc(C(=O)O)c(O)c2)cc1

>  <Potency>
inactive

$$$$
>  <molecule>
CN1N=C(N)c2cn([C@@H]3O[C@H](COP(=O)(O)O)[C@@H](O)[C@@H]3O)c3ncnc1c23

>  <Potency>
1.66 µM (active)

$$$$
>  <molecule>
N#CC(c1ccc(Cl)cc1)c1c(Cl)cc(-n2ncc(=O)[nH]c2=O)cc1Cl (stereo not drawn)

>  <Potency>
8.33 µM (active)

$$$$
>  <molecule>
CON(C)C(=O)N1N=C(c2cc(F)ccc2F)S[C@]1(CCCN)c1ccccc1

>  <Potency>
0.001 µM (active)

$$$$
